Test: Inhibition of threonine synthase in Escherichia coli
pKi: −log10 of the molar value.
Use label 1 when the recorded pKi is no lower than 3; use label 0 when it is lower.

- Compound: "NC(CSCP(=O)(O)O)C(=O)O (stereo not given)"
  Classification: "label 1"
- Compound: "NC(CNCP(=O)(O)O)C(=O)O (stereo not given)"
  Classification: "label 1"
- Compound: "NC(/C=C/CP(=O)(O)O)C(=O)O (stereo not given)"
  Classification: "label 1"
- Compound: "NC(C/C=C/P(=O)(O)O)C(=O)O (stereo not given)"
  Classification: "label 1"
- Compound: "NC(/C=C\\CP(=O)(O)O)C(=O)O (stereo not given)"
  Classification: "label 0"
